Item-by-item account of melting point

# count of solved cases: 5
COc1cc(-c2nc3ccccc3c(=O)[nH]2)ccc1OCC(=O)NCc1ccc(C)cc1 = 191 to 193 °C
COc1cc(-c2nc3ccccc3c(=O)[nH]2)ccc1OCC(=O)Nc1ccccc1Cl = 207 to 209 °C
COc1cc(-c2nc3ccccc3c(=O)[nH]2)ccc1OCC(=O)NCc1ccccc1 = 194 to 196 °C
COc1cc(-c2nc3ccccc3c(=O)[nH]2)ccc1OCC(=O)Nc1ccccc1C = 196 to 198 °C
COc1cc(-c2nc3ccccc3c(=O)[nH]2)ccc1OCC(=O)Nc1c(C)cccc1C = 215 to 217 °C

Annotate the compound "COc1ccc(NC(=O)COc2ccc(-c3nc4ccccc4c(=O)[nH]3)cc2OC)cc1" with its measured melting point. 205 to 207 °C

Annotate the compound "COc1cc(-c2nc3ccccc3c(=O)[nH]2)ccc1OCC(=O)Nc1ccccc1F" with its measured melting point. 222 to 225 °C

Annotate the compound "COc1cc(-c2nc3ccccc3c(=O)[nH]2)ccc1OCC(=O)Nc1ccc2ccccc2c1" with its measured melting point. 217 to 219 °C

Annotate the compound "COc1cc(-c2nc3ccccc3c(=O)[nH]2)ccc1OCC(=O)Nc1ccccc1" with its measured melting point. 192 to 194 °C

Annotate the compound "COc1cc(-c2nc3ccccc3c(=O)[nH]2)ccc1OCC(=O)Nc1ccc(F)cc1" with its measured melting point. 216 to 218 °C

Annotate the compound "COc1cc(-c2nc3ccccc3c(=O)[nH]2)ccc1OCC(=O)Nc1ccc(Cl)cc1" with its measured melting point. 211 to 213 °C

Annotate the compound "COc1cc(-c2nc3ccccc3c(=O)[nH]2)ccc1OCC(=O)Nc1cccc(Cl)c1" with its measured melting point. 203 to 205 °C

The values you see were collected from paper PMC9667588.
